# TARGET_UNDER_TEST: Cq-FABP (Cherax quadricarinatus, UniProt L0I6Z9)
# Sequence (L0I6Z9 entry or part of it): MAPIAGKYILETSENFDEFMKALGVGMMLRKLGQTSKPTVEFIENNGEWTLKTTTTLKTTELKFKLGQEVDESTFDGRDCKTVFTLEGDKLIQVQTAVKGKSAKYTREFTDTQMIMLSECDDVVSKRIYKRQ
# PROCEDURE_TEXT: BODIPY-C16 steady-state fluorescence anisotropy titration and competition
# Format: binding
# ASSAY_CONDITIONS: Kd,FA, calculated from the Kd app,C16 values, using Eq. 5; 200 nM BODIPY-C16
READOUT: Kd (nM)
Numbers only; they are read as nM.

Kd of CCCCCCCC/C=C\CCCCCCCC(=O)O [OA, oleic acid] on Cq-FABP (Cherax quadricarinatus, UniProt L0I6Z9)?
2600

Numbers sourced from paper PMC3528769.
